- system.under.test: Torpedo marmorata nicotinic acetylcholine receptor (nAChR)
- assay.name: nAChR/microsphere-based inhibition assay
- Assay type: binding
measured.parameter: pIC50
pIC50 (log units): -log10 of the concentration in mol/L.

Problem: GET pIC50 | system: Torpedo marmorata nicotinic acetylcholine receptor (nAChR) | item: C=C1CCCC2=NCC(C)C(C)CC23CCC(C2C=C(C)C(=O)O2)=C(C)C3/C=C(/C)C(O)CC2CCC3(CCC4(OC(CCC4(C)O)C1)O3)O2 (stereo not shown) [13-desmethyl spirolide C]
Solution: 8.00

###

- system.under.test: Torpedo marmorata nicotinic acetylcholine receptor (nAChR)
- assay.name: nAChR/microsphere-based inhibition assay
- Assay type: binding
- conditions.used: scallop extract, n = 5
measured.parameter: pIC50
pIC50 (log units): -log10 of the concentration in mol/L.

Problem: Identify pIC50 associated with the compound C=C1CCCC2=NCC(C)C(C)CC23CCC(C2C=C(C)C(=O)O2)=C(C)C3/C=C(/C)C(O)CC2CCC3(CCC4(OC(CCC4(C)O)C1)O3)O2 (stereo not shown) [13-desmethyl spirolide C]
Solution: 7.91

###

- system.under.test: Torpedo marmorata nicotinic acetylcholine receptor (nAChR)
- assay.name: nAChR/microsphere-based inhibition assay
- Format: binding
- conditions.used: clam extract, n = 2
measured.parameter: pIC50
pIC50 (log units): -log10 of the concentration in mol/L.

Problem: Identify pIC50 associated with the compound C=C1CCCC2=NCC(C)C(C)CC23CCC(C2C=C(C)C(=O)O2)=C(C)C3/C=C(/C)C(O)CC2CCC3(CCC4(OC(CCC4(C)O)C1)O3)O2 (stereo not shown) [13-desmethyl spirolide C]
Solution: 7.83

Ref: paper PMC3597463
